Reported values of pIC50 for individual entries
# System: HEK293 cells
# PROTOCOL DESCRIPTION: CellTiter-Glo Luminescent Cell Viability Assay in HEK293 cells
# Format: cell-based
# MEASUREMENT CONDITIONS: Homo sapiens, 168 h, 7 days incubation, CellTiter-Glo luminescence
pIC50: −log10 of the molar value.
ASSAY METRIC: pIC50

* Cc1cc(OCc2coc(/C=C/c3ccc(C(F)(F)F)cc3)n2)ccc1COCCc1ccnn1C [Example 2] | 6.60 to 8.30
* Cc1cc(OCc2coc(/C=C/c3ccc(C(F)(F)F)cc3F)n2)ccc1COCCc1ccnn1C [Example 4] | 6.60 to 8.30
* Cc1cc(OCc2coc(/C=C/c3ccc(C(F)(F)F)cc3)n2)ccc1C[S+]([O-])CCc1ccnn1C (centres unmarked) [Example 7] | 6.60 to 8.30
* Cn1nccc1CC[S+]([O-])Cc1ccc(OCc2coc(/C=C/c3ccc(C(F)(F)F)cc3)n2)cc1 (centres unmarked) [Example 9] | 6.00 to 6.60
* Cc1cc(OCc2coc(/C=C/c3ccc(OC(F)(F)F)cc3)n2)ccc1COCCc1ccnn1C [Example 1] | 7.02
* Cc1cc(OCc2coc(/C=C/c3ccc(Cl)cc3)n2)ccc1C[S+]([O-])CCc1ccnn1C (centres unmarked) [Example 6] | 6.60 to 8.30
* Cc1cc(OCc2coc(/C=C/c3ccc(Cl)cc3)n2)ccc1COCCc1ccnn1C [Example 3] | 6.60 to 8.30
* Cn1nccc1CC[S+]([O-])Cc1ccc(OCc2coc(/C=C/c3ccc(OC(F)(F)F)cc3)n2)cc1 (centres unmarked) [Example 8] | 6.00 to 6.60
